Target: T1, CotA (Clostridium difficile, UniProt Q186G8 SEQ:1-305)
T1 sequence: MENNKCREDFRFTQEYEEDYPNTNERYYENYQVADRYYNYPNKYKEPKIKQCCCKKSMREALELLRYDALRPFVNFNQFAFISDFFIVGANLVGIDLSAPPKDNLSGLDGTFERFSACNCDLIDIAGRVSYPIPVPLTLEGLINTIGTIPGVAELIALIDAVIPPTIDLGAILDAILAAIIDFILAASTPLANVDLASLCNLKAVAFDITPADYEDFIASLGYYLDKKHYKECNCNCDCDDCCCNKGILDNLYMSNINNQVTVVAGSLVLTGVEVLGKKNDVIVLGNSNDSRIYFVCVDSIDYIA
Assay: SPR; CotA immobilized on hydrogel chip by EDC, aptamer injected
Conditions: tags: His6
MEASUREMENT_NAME: pKd
The read-out pKd is expressed as -log10 of concentration in moles per litre.

Query: Indicate the recorded pKd value for this binder: CotA_C1 (ssDNA) DNA: CCAGTGTAGACTACTCAATGCCGTGGACTGGTCGGGTTTGGATTCGGCAGATGAATCACTAGTACTATCCACAGGTCAACC
Response: 8.16
